system: human PCSK9 locus; assay: Secreted PCSK9 by ELISA in Huh7 cells transfected with mRNA and gRNA; assay type: cell-based; conditions: Huh7 cells, LTRP5-ADD-ZIM3 mRNA, 50 ng mRNA:25 ng gRNA, day 6, relative to non-targeting gRNA control
Below is a list of entries, each paired with its recorded Percent reduction in PCSK9 secretion value.
Give a bare numeral; the unit % is implied.

substance | Percent reduction in PCSK9 secretion [%]
TG-06-004 (guide GCCAGGCCGUCCUCCUCGGA; listed as RNA, chemistry not given here) | 33.35
TG-06-133 (guide AUGGUAGGCACAAGCUCAGC; listed as RNA, chemistry not given here) | 64.21

API: the following record is the query input.
**Q:** Consider the substance TG-06-143 (guide GAAUCAAUCCUACUGUGGAC; listed as RNA, chemistry not given here) and give its measured Percent reduction in PCSK9 secretion.
**A:** 52.97

* * *

tested on: human PCSK9 locus; test: Secreted PCSK9 by ELISA in Huh7 cells transfected with mRNA and gRNA; format: cell-based; conditions: Huh7 cells, LTRP5-ADD-ZIM3 mRNA, 25 ng mRNA:12.5 ng gRNA, day 6, relative to non-targeting gRNA control
recorded metric: Percent reduction in PCSK9 secretion (%)
Give a bare numeral; the unit % is implied.

substance | scale unit | observed measurement
TG-06-128 (guide AGAAAUCAACUGGACAAGCA; listed as RNA, chemistry not given here) | % | 12.57
TG-06-125 (guide AGAAAGAGCAAGCCUCAUGU; listed as RNA, chemistry not given here) | % | 35.28
TG-06-172 (guide GCUGAAACAGAUGGAAUACU; listed as RNA, chemistry not given here) | % | 16.75
TG-06-131 (guide UGAACAUGGUGUGUAAAAGG; listed as RNA, chemistry not given here) | % | 18.74
TG-06-168 (guide GUGGGAAGGUUCGCGGGGUU; listed as RNA, chemistry not given here) | % | 28.47
TG-06-129 (guide UUUUACACACCAUGUUCAAG; listed as RNA, chemistry not given here) | % | 27.47

API: the following record is the query input.
**Q:** Consider the substance TG-06-141 (guide ACUGGCCUUAACCUGGCAGC; listed as RNA, chemistry not given here) and give its measured Percent reduction in PCSK9 secretion.
**A:** 82.34

* * *

Below is a list of entries, each paired with its recorded Average percent reduction in PCSK9 secretion value.
test system: human PCSK9 locus; test: Secreted PCSK9 by ELISA in Huh7 cells transfected with mRNA and gRNA; format: cell-based; conditions: Huh7 cells, LTRP5-ADD-ZIM3 mRNA, day 6, averaged from the two doses
Give a bare numeral; the unit % is implied.

**Q:** Consider the substance TG-06-124 (guide CAGUAUCGACAGCCCUUCCA; listed as RNA, chemistry not given here) and give its measured Average percent reduction in PCSK9 secretion.
**A:** 68.48

**Q:** Consider the substance TG-06-145 (guide UGGGUCCACCUUGUCUCCUG; listed as RNA, chemistry not given here) and give its measured Average percent reduction in PCSK9 secretion.
**A:** 77.39

**Q:** Consider the substance TG-06-151 (guide CUCUGCGCGUAAUCUGACGC; listed as RNA, chemistry not given here) and give its measured Average percent reduction in PCSK9 secretion.
**A:** 20.91

**Q:** Consider the substance TG-06-172 (guide GCUGAAACAGAUGGAAUACU; listed as RNA, chemistry not given here) and give its measured Average percent reduction in PCSK9 secretion.
**A:** 31.37

**Q:** Consider the substance TG-06-167 (guide CACUGAAUAGCGCAGCCGCA; listed as RNA, chemistry not given here) and give its measured Average percent reduction in PCSK9 secretion.
**A:** 29.22

**Q:** Consider the substance TG-06-133 (guide AUGGUAGGCACAAGCUCAGC; listed as RNA, chemistry not given here) and give its measured Average percent reduction in PCSK9 secretion.
**A:** 52.53

**Q:** Consider the substance TG-06-119 (guide GAGCAGGCCAUUUCACUCGG; listed as RNA, chemistry not given here) and give its measured Average percent reduction in PCSK9 secretion.
**A:** 2.1

**Q:** Consider the substance TG-06-135 (guide GGAAAGCUGAGCUUGUGCCU; listed as RNA, chemistry not given here) and give its measured Average percent reduction in PCSK9 secretion.
**A:** 53.12

**Q:** Consider the substance TG-06-128 (guide AGAAAUCAACUGGACAAGCA; listed as RNA, chemistry not given here) and give its measured Average percent reduction in PCSK9 secretion.
**A:** 30.63

**Q:** Consider the substance TG-06-146 (guide GAAGUCUCACUGGUCAGCAG; listed as RNA, chemistry not given here) and give its measured Average percent reduction in PCSK9 secretion.
**A:** 60.9

**Q:** Consider the substance Non-targeting (guide CGAGACGTAATTACGTCTCG; chemistry not given here) and give its measured Average percent reduction in PCSK9 secretion.
**A:** 0

**Q:** Consider the substance TG-06-118 (guide GAGUGAAAUGGCCUGCUCUG; listed as RNA, chemistry not given here) and give its measured Average percent reduction in PCSK9 secretion.
**A:** 39.99

**Q:** Consider the substance TG-06-171 (guide CAGUACGUUCCAGGCAUUCA; listed as RNA, chemistry not given here) and give its measured Average percent reduction in PCSK9 secretion.
**A:** 28.88

* * *

tested on: human PCSK9 locus; assay: Secreted PCSK9 by ELISA in Huh7 cells transfected with mRNA and gRNA; type: cell-based; conditions: Huh7 cells, LTRP5-ADD-ZIM3 mRNA + gRNA scaffold 316, 25 ng mRNA:12.5 ng gRNA, 6 days post-transfection, normalized to total cell count
Below is a list of entries, each paired with its recorded Secreted PCSK9 value.
Give a bare numeral; the unit ng/mL is implied.

Solved entries (count: 5):
substance | scale unit | observed measurement
TG-06-152 (guide GCCUCGCCCUCCCCAAACAG; listed as RNA, chemistry not given here) | ng/mL | 57.43
TG-06-124 (guide CAGUAUCGACAGCCCUUCCA; listed as RNA, chemistry not given here) | ng/mL | 30.59
TG-06-150 (guide UCCCUCUGCGCGUAAUCUGA; listed as RNA, chemistry not given here) | ng/mL | 39.59
TG-06-161 (guide GCUCCUGCACAGUCCUCCCC; listed as RNA, chemistry not given here) | ng/mL | 53.16
TG-06-131 (guide UGAACAUGGUGUGUAAAAGG; listed as RNA, chemistry not given here) | ng/mL | 57.89

**Q:** Consider the substance TG-06-120 (guide CUCGGAAUCUGCUGUGCAUC; listed as RNA, chemistry not given here) and give its measured Secreted PCSK9.
**A:** 47.97

**Q:** Consider the substance TG-06-126 (guide CCUUUUCAUCCUCCUGCCUG; listed as RNA, chemistry not given here) and give its measured Secreted PCSK9.
**A:** 44.82

**Q:** Consider the substance TG-06-005 (guide GUGCUCGGGUGCUUCGGCCA; listed as RNA, chemistry not given here) and give its measured Secreted PCSK9.
**A:** 76.37

**Q:** Consider the substance TG-06-122 (guide CCUUUGUUUCUUCCCAGUAU; listed as RNA, chemistry not given here) and give its measured Secreted PCSK9.
**A:** 86.06

* * *

Below is a list of entries, each paired with its recorded Percent reduction in PCSK9 secretion value.
Tested on: human PCSK9 locus
Experiment: Secreted PCSK9 by ELISA in Huh7 cells transfected with mRNA and gRNA
Format: cell-based
Conditions: Huh7 cells, LTRP5-ADD-ZIM3 mRNA, 25 ng mRNA:12.5 ng gRNA, day 6, relative to non-targeting gRNA control
Experimental: To assess PCSK9 secretion, seeded Huh7 cells were transfected with mRNA encoding a catalytically-active CasX 676, dXR1, or LTRP5-ADD-ZIM3 and a gRNA with scaffold 316 and spacer targeting either the B2M or PCSK9 locus. Media supernatant was harvested at 6, 18, 36, and 87 days post-transfection to assess level of PCSK9 secretion by ELISA. […] As an additional control, PCSK9 secretion was also measured in the media supernatant harvested from wells containing untreated, naïve cells. […]
Give a bare numeral; the unit % is implied.

Solved entries (count: 2):
substance | Percent reduction in PCSK9 secretion, %
Non-targeting (guide CGAGACGTAATTACGTCTCG; chemistry not given here) | 0
TG-06-123 (guide UCCCAGUAUCGACAGCCCUU; listed as RNA, chemistry not given here) | 27.97

**Q:** Consider the substance TG-06-154 (guide AGGGUGUGGGUGCUUGACGC; listed as RNA, chemistry not given here) and give its measured Percent reduction in PCSK9 secretion.
**A:** 65.64

**Q:** Consider the substance TG-06-151 (guide CUCUGCGCGUAAUCUGACGC; listed as RNA, chemistry not given here) and give its measured Percent reduction in PCSK9 secretion.
**A:** 6.77

**Q:** Consider the substance TG-06-158 (guide GGAGCAGGGCGCGUGAAGGG; listed as RNA, chemistry not given here) and give its measured Percent reduction in PCSK9 secretion.
**A:** 55.48

**Q:** Consider the substance TG-06-170 (guide UCGGCCUCCGGGUCUCCCAA; listed as RNA, chemistry not given here) and give its measured Percent reduction in PCSK9 secretion.
**A:** 2.41

**Q:** Consider the substance TG-06-124 (guide CAGUAUCGACAGCCCUUCCA; listed as RNA, chemistry not given here) and give its measured Percent reduction in PCSK9 secretion.
**A:** 57.06

**Q:** Consider the substance TG-06-118 (guide GAGUGAAAUGGCCUGCUCUG; listed as RNA, chemistry not given here) and give its measured Percent reduction in PCSK9 secretion.
**A:** 23.11

**Q:** Consider the substance TG-06-133 (guide AUGGUAGGCACAAGCUCAGC; listed as RNA, chemistry not given here) and give its measured Percent reduction in PCSK9 secretion.
**A:** 40.86
